- Tested on: cytokinin-dependent tobacco callus Nicotiana tabacum L. cv. Wisconsin 38
- ASSAY: Cytokinin activity in tobacco callus bioassay
- Type: cell-based
- EXPERIMENTAL PARAMETERS: increase of fresh callus weight at the concentration with highest activity; 10^−5 M BAP = 100%
MEASURED ENDPOINT: Activity (%) [10^−5 mol · l^−1 BAP = 100%]
Numeric answer plus unit only.

Note down Activity (%) [10^−5 mol · l^−1 BAP = 100%] recorded for COc1cc(CNc2ncnc3c2ncn3C2CCCCO2)ccc1O (stereo not drawn) 62%

Note down Activity (%) [10^−5 mol · l^−1 BAP = 100%] recorded for Oc1ccc(Nc2ncnc3c2ncn3C2CCCCO2)cc1 (stereo not drawn) [4-hydroxyanilino / tetrahydropyran-2-yl] 22%

Note down Activity (%) [10^−5 mol · l^−1 BAP = 100%] recorded for Oc1cccc(CNc2ncnc3c2ncn3C2CCCO2)c1 (stereo not drawn) 125%

----------
# reported GI50; entries follow
- Tested on: Human T-lymphoblastic leukemia cell line CEM
- ASSAY: In vitro cytotoxicity, Calcein AM assay
- EXPERIMENTAL PARAMETERS: read-out: GI50 CEM; CEM, 72 hours, Calcein AM
# number only, unit µM dropped from output

Look over these answered cases.
c1coc(CNc2ncnc3[nH]cnc23)c1 [furfurylamino / H, reference compound]
155
CC(C)=CCNc1ncnc2nc[nH]c12
92.2
Oc1ccccc1CNc1ncnc2[nH]cnc12 [2-hydroxybenzylamino / H, reference compound]
69.2

Okay, next one:
Note down GI50 recorded for Oc1cccc(CNc2ncnc3[nH]cnc23)c1 [3-hydroxybenzylamino / H, reference compound] 90.1

----------
- Test system: β-adrenergic receptors
- ASSAY: Isoproterenol-induced cAMP synthesis in rat C6 glioma
- Type: cell-based
- EXPERIMENTAL PARAMETERS: cellular cAMP, simultaneous addition with isoproterenol, 30 min
MEASURED ENDPOINT: Effect (modulation of the activity of β-adrenergic receptors)

Note down Effect (modulation of the activity of β-adrenergic receptors) recorded for COc1cc(CNc2ncnc3c2ncn3C2CCCCO2)ccc1O (stereo not shown) 1.6-fold fold activation

Note down Effect (modulation of the activity of β-adrenergic receptors) recorded for Oc1ccc(CNc2ncnc3c2ncn3C2CCCCO2)cc1 (stereo not shown) 1.8-fold fold activation

Note down Effect (modulation of the activity of β-adrenergic receptors) recorded for COc1cc(O)cc(OC)c1CNc1ncnc2c1ncn2C1CCCCO1 (stereo not shown) 1.3-fol fold activation

Note down Effect (modulation of the activity of β-adrenergic receptors) recorded for Oc1ccc(CNc2ncnc3c2ncn3C2CCCCO2)cc1O (stereo not shown) 1.7-fold fold activation

----------
- Tested on: promyelocytic HL-60 leukemia
- ASSAY: In vitro cytotoxicity, Calcein AM assay
- EXPERIMENTAL PARAMETERS: read-out: GI50 HL60; HL60, 72 hours, Calcein AM
MEASURED ENDPOINT: GI50

Look over these answered cases.
c1coc(CNc2ncnc3[nH]cnc23)c1 [furfurylamino / H, reference compound]
149 µM
CCOC(C)n1cnc2c(NC/C=C(\C)CO)ncnc21 (centres unmarked)
> 167 µM
Oc1ccc(CNc2ncnc3c2ncn3CCCCCl)cc1 [4-hydroxybenzylamino / 4-chlorobutyl]
> 167 µM

Note down GI50 recorded for Cc1cc(Nc2ncnc3c2ncn3C2CCCCO2)ccc1O (centres unmarked) [4-hydroxy-5-methylanilino / tetrahydropyran-2-yl] > 167 µM

Note down GI50 recorded for COc1ccc(CNc2ncnc3c2ncn3C2CCCCO2)cc1O (centres unmarked) > 167 µM

----------
- Test system: cytokinin-dependent tobacco callus Nicotiana tabacum L. cv. Wisconsin 38
- ASSAY: Cytokinin activity in tobacco callus bioassay
- Assay type: cell-based
- EXPERIMENTAL PARAMETERS: increase of fresh callus weight at the concentration with highest activity; 10^−5 M BAP = 100%
MEASURED ENDPOINT: Activity (%) [10^−5 mol · l^−1 BAP = 100%]
Numeric answer plus unit only.

Look over these answered cases.
CCOC(C)n1cnc2c(NCCC(C)CO)ncnc21 (stereo not shown)
95%
COc1ccc(CNc2ncnc3c2ncn3C2CCCO2)cc1O (stereo not shown)
47%
Oc1ccc(CNc2ncnc3c2ncn3C2CCCO2)cc1 (stereo not shown)
27%
CCOC(C)n1cnc2c(NCc3cccc(O)c3)ncnc21 (stereo not shown) [3-hydroxybenzylamino / 1-ethoxyethyl]
109.4%
Cc1cc(CNc2ncnc3c2ncn3C2CCCO2)ccc1O (stereo not shown) [4-hydroxy-5-methylbenzylamino / tetrahydrofuran-2-yl]
2%
Oc1ccc(Nc2ncnc3c2ncn3C2CCCO2)cc1 (stereo not shown) [4-hydroxyanilino / tetrahydrofuran-2-yl]
10%
COc1cccc(CNc2ncnc3c2ncn3C2CCCCO2)c1O (stereo not shown)
11%
Oc1ccc(CNc2ncnc3c2ncn3C2CCCCO2)c(O)c1 (stereo not shown)
5%

Note down Activity (%) [10^−5 mol · l^−1 BAP = 100%] recorded for C/C(=C\CNc1ncnc2c1ncn2C1CCCO1)CO (stereo not shown) 89%

Note down Activity (%) [10^−5 mol · l^−1 BAP = 100%] recorded for Oc1ccc(CNc2ncnc3c2ncn3C2CCCCO2)cc1 (stereo not shown) 36%

Note down Activity (%) [10^−5 mol · l^−1 BAP = 100%] recorded for COc1cc(O)cc(OC)c1Nc1ncnc2c1ncn2C1CCCCO1 (stereo not shown) 15%

----------
- Test system: cytokinin-dependent tobacco callus Nicotiana tabacum L. cv. Wisconsin 38
- ASSAY: Cytokinin activity in tobacco callus bioassay
- Format: cell-based
- EXPERIMENTAL PARAMETERS: increase of fresh callus weight at the concentration with highest activity; 10^−5 M BAP = 100%
Mark fulfilled only for Activity (%) [10^−5 mol · l^−1 BAP = 100%] values smaller than 50%; exact matches and larger values are not fulfilled.

Oc1cc(O)cc(CNc2ncnc3c2ncn3C2CCCCO2)c1 (stereo not drawn)
fulfilled
Cc1cc(Nc2ncnc3c2ncn3C2CCCCO2)ccc1O (stereo not drawn) [4-hydroxy-3-methylanilino / tetrahydropyran-2-yl]
fulfilled
Oc1ccccc1CNc1ncnc2[nH]cnc12 [2-hydroxybenzylamino / H, reference compound]
not fulfilled

Identify whether the compound CC(CO)CCNc1ncnc2c1ncn2C1CCCCO1 (stereo not drawn) records Activity (%) [10^−5 mol · l^−1 BAP = 100%] below 50%. not fulfilled

Identify whether the compound Oc1ccoc1CNc1ncnc2c1ncn2C1CCCCO1 (stereo not drawn) records Activity (%) [10^−5 mol · l^−1 BAP = 100%] below 50%. not fulfilled

Identify whether the compound COc1cc(CNc2ncnc3c2ncn3C2CCCCO2)cc(OC)c1O (stereo not drawn) records Activity (%) [10^−5 mol · l^−1 BAP = 100%] below 50%. fulfilled

----------
- Test system: cytokinin-dependent tobacco callus Nicotiana tabacum L. cv. Wisconsin 38
- ASSAY: Cytokinin activity in tobacco callus bioassay
- Format: cell-based
- EXPERIMENTAL PARAMETERS: increase of fresh callus weight at the concentration with highest activity; 10^−5 M BAP = 100%
- Description: Estimation of cytokinin biological activity of novel compounds in callus bioassay. Cytokinin-dependent tobacco callus Nicotiana tabacum L. cv. […] Subcultivation was carried out every three weeks. […] The biological activity was determined from the increase of the fresh callus weight after four weeks of cultivation. […] The relative activity of the compound at this concentration was calculated (Table 8). […]
MEASURED ENDPOINT: Activity (%) [10^−5 mol · l^−1 BAP = 100%]
# number only, unit % dropped from output

CCOC(C)n1cnc2c(NC/C=C(\C)CO)ncnc21 (stereo not drawn)
102.8
Cc1cc(Nc2ncnc3c2ncn3C2CCCO2)ccc1O (stereo not drawn)
7

Okay, next one:
Param request: Activity (%) [10^−5 mol · l^−1 BAP = 100%] | system cytokinin-dependent tobacco callus Nicotiana tabacum L. cv. Wisconsin 38 | item Cc1cccc(CNc2ncnc3c2ncn3C2CCCCO2)c1O (stereo not drawn) 9.2

----------
# reported Activity (%) [10^−5 mol · l^−1 BAP = 100%]; entries follow
- System: cytokinin-dependent tobacco callus Nicotiana tabacum L. cv. Wisconsin 38
- ASSAY: Cytokinin activity in tobacco callus bioassay
- Format: cell-based
- EXPERIMENTAL PARAMETERS: increase of fresh callus weight at the concentration with highest activity; 10^−5 M BAP = 100%
# number only, unit % dropped from output

Oc1cc(O)cc(CNc2ncnc3[nH]cnc23)c1 [3,5-dihydroxybenzylamino / H, reference compound]
39
Cc1cc(CNc2ncnc3c2ncn3C2CCCO2)ccc1O (centres unmarked) [4-hydroxy-3-methylbenzylamino / tetrahydrofuran-2-yl]
12
CC(CO)CCNc1ncnc2c1ncn2CCCCCl (centres unmarked)
84
Cc1cc(CNc2ncnc3c2ncn3C2CCCCO2)ccc1O (centres unmarked) [4-hydroxy-3-methylbenzylamino / tetrahydropyran-2-yl]
4

Okay, next one:
Note down Activity (%) [10^−5 mol · l^−1 BAP = 100%] recorded for Oc1ccccc1Nc1ncnc2c1ncn2C1CCCCO1 (centres unmarked) [2-hydroxyanilino / tetrahydropyran-2-yl] 30

----------
# reported Activity (%) [10^−5 mol · l^−1 BAP = 100%]; entries follow
- Tested on: cytokinin-dependent tobacco callus Nicotiana tabacum L. cv. Wisconsin 38
- ASSAY: Cytokinin activity in tobacco callus bioassay
- Assay type: cell-based
- EXPERIMENTAL PARAMETERS: increase of fresh callus weight at the concentration with highest activity; 10^−5 M BAP = 100%
# number only, unit % dropped from output

Note down Activity (%) [10^−5 mol · l^−1 BAP = 100%] recorded for C/C(=C\CNc1ncnc2c1ncn2C1CCCCO1)CO (stereo not drawn) 96.5

Note down Activity (%) [10^−5 mol · l^−1 BAP = 100%] recorded for Oc1cccc(CNc2ncnc3[nH]cnc23)c1 [3-hydroxybenzylamino / H, reference compound] 116

Note down Activity (%) [10^−5 mol · l^−1 BAP = 100%] recorded for Oc1cccc(CNc2ncnc3c2ncn3C2CCCCO2)c1 (stereo not drawn) 139

Note down Activity (%) [10^−5 mol · l^−1 BAP = 100%] recorded for Cc1cc(Nc2ncnc3c2ncn3C2CCCCO2)ccc1O (stereo not drawn) [4-hydroxy-5-methylanilino / tetrahydropyran-2-yl] 10

Note down Activity (%) [10^−5 mol · l^−1 BAP = 100%] recorded for `C/C(=C\CNc1ncnc2c1ncn2CCCCCl)CO` 103.5
